Cited source: PubChem BioAssay (NCI)

Tested on: MALME-3M melanoma
Experiment: NCI-60 one-dose screen, 48 h
Measurement Parameters: 10 µM unless noted
The panel holds about 83,000 compounds, 20% with a hit somewhere; the sample as a whole holds those more often. The source made the active and inactive calls. The calls were made as follows: active = growth percent below 10; inactive = the rest.
Please state which outcome applies, choosing from active, inactive

Recorded test outcome, item COC(=O)c1ccc(NC(=O)c2ccc(-c3cccc([N+](=O)[O-])c3)o2)cc1
inactive

I would be grateful if you could indicate the recorded call for NC(=NCCCC1(c2ccccc2)CCCC1)Nc1ccc(Cl)cc1 .
active

Fill in: this test's call for O=C1c2cc3c(cc2-c2c1c1ccc(F)cc1c(=O)n2CCCNCCO)OCO3 is ___
active

What classification did c1ccc(-c2cc3n4c(-c5ccccc5)nn(-c5ccccc5)c4cnc-3n2)cc1 end up with in this test?
inactive

In this assay, the call recorded for CCCCn1c(-c2ccc(C(=O)O/N=C(\N)c3ccc4ccccc4c3)cc2)nc(-c2ccccc2)c1-c1ccccc1 was what?
inactive

Outcome? COc1ccccc1Nc1nc(-c2cc3cccc(C(F)(F)F)c3oc2=O)cs1
inactive

Outcome logged for O=C1/C(=C/C(Cl)=C/c2ccccc2)SC(=S)N1CCc1ccc(O)cc1 in this assay:
active

Look up the recorded call for O=C(Cc1ccc(/C=C/C(=O)c2ncc[nH]2)cc1)Nc1ccccc1 in this test.
inactive

Record request — test call for C=CC(=O)Nc1cccc(-c2nc(SC)nc(Nc3ccccc3OC)c2C#N)c1
active

For this compound, state the assay outcome: CC1C(/C=N/Nc2ccccc2)C(C#N)(C#N)C1(C#N)C#N (stereo not given)
inactive

* * *

Tested on: 786-0 renal
Experiment: NCI-60 one-dose screen, 48 h (100 = growth as untreated, 0 = no growth, -100 = all killed)
Measurement Parameters: 10 µM unless noted
About 83,000 compounds went through this panel and 20% of them were active in at least one assay; those are over-represented in the sample as a whole.
Listed here are compounds together with their documented growth.
Record the value in %, omitting the unit from your answer.

Write down growth measured for item Cc1ccc(/C=C2\SC(=S)N(CC(=O)NCCCN3CCOCC3)C2=O)cc1
104

Given the compound CCN(CC)c1ccc(/C=N\NC(=O)/C=C/C=C/c2ccc3c(c2)OCO3)c(O)c1 , write its reported growth.
47.2

Look up and report measured growth for this entry: CC(=O)c1cc2c(N)c(C(=O)Nc3cccc(F)c3C)sc2nc1C
92.1

Determine its reported growth: Cc1nc2ccccc2n1C(=O)C[C@@H]1NC(=S)NC1=O
101

Return growth for the following compound: OCCNc1nccc(N2CCN(c3ccnc4cc(Cl)ccc34)CC2)n1
92.8

Determine its reported growth: O=S(=O)(Nc1ccc(NS(=O)(=O)c2ccccc2)c(Cl)c1)c1ccccc1
103

Next:
Recall and state the measured growth for COc1ccc(-c2cc(NC(=O)Nc3ccc4ncsc4c3)no2)cc1 .
99.1

Output measured growth for this item: COc1cccc(Nc2nc(SC)nc(-c3cccc([N+](=O)[O-])c3)c2C#N)c1
36.4

Specify reported growth for the compound shown: c1ccc(-c2c(-c3ccccc3)[n+](Cc3ccc4ccccc4c3)c(-c3ccc(-c4nc5ccccc5s4)cc3)n2Cc2ccc3ccccc3c2)cc1
-75.4

Look up growth of CSc1nc(Nc2cccc(NC(=O)CCl)c2)c(C#N)c(-c2cccc([N+](=O)[O-])c2)n1 and report it.
73.2

* * *

System: UO-31 renal
Experiment: NCI-60 one-dose screen, 48 h (100 = growth as untreated, 0 = no growth, -100 = all killed)
Measurement Parameters: 10 µM unless noted
Compounds without any hit were thinned out: in the full panel of roughly 83,000, 20% have a hit.
Catalogue of growth values
Please respond with the number in % and leave the unit unwritten.

Supply measured growth of Cc1ccc(C2Oc3ccccc3C3CC(c4cccs4)=NN32)cc1 (stereo not given) in your reply.
65.3

Note growth for the compound shown: CCN1CCC2(CC1)NC(=O)c1c(c3ccc(Cl)c(Cl)c3n1C)C2C#N (stereo not given)
43

Please indicate growth recorded for COC(=O)c1ccc(Cn2cnc3c(N)ncnc32)cc1
89.9

Give growth for CCOc1cc2ncc(C#N)c(Nc3ccc(F)c(Cl)c3)c2cc1NC(=O)CC1CCSS1 (stereo not given)
-92.4

***
Read the entry COc1ccc(/C=C\c2cc(OC)c(OC)c(OC)c2)cc1OCC(=O)Nc1ccc2nc(C)sc2c1 and write its reported growth.
5.67

* * *

Tested on: UACC-257 melanoma
Experiment: NCI-60 one-dose screen, 48 h (100 = growth as untreated, 0 = no growth, -100 = all killed)
Measurement Parameters: 10 µM unless noted
The panel holds about 83,000 compounds, 20% with a hit somewhere; the sample as a whole holds those more often. Calls of active or inactive are those of the source. Rule for the calls: active = growth percent below 10; inactive = the rest.
Recorded growth for the following compounds

State its growth: Cc1[nH]c(-c2cc(N)ccc2Cl)c2c1C(=O)CCCC2
18.6% (inactive)

Please give the documented growth of CSc1nc(-c2cccc(NC(=O)CCl)c2)c(C#N)c(=O)n1C
63.5% (inactive)

Give the value of growth reported for the following: O=c1c(F)cn(Cc2ccccc2CCl)c(=O)n1Cc1ccccc1CCl
-48.1% (active)

Output growth of O=C(Nc1cccc2[nH]c(C(F)(F)F)nc12)c1ccc(-n2cnnn2)cc1
107% (inactive)

Report growth, nothing else, for this compound: CN1CCN(CCCOc2cccc3nc(Nc4ccc(Cl)c(F)c4)ccc23)CC1
-31% (active)

Could you now look at the following compound, please?
Please give the documented growth of O=C(C(=O)c1ccc2c(c1)OCO2)c1ccc2c(c1)OCO2
87.8% (inactive)

* * *

System: HOP-92 NSCLC
Experiment: NCI-60 one-dose screen, 48 h
Measurement Parameters: 10 µM unless noted
The panel holds about 83,000 compounds, 20% with a hit somewhere; the sample as a whole holds those more often. Calls of active or inactive are those of the source. Rule for the calls: active = growth percent below 10; inactive = the rest.
Pick from active, inactive when you respond.

Give the logged outcome of this assay for the following molecule: CC[C@@H](C(=O)[C@@H](C)[C@@H](O)[C@H](C)[C@@H]1O[C@@H]([C@@H](CC)C(=O)O)CC[C@@H]1C)[C@H]1OC2(C=C[C@@H](O)[C@]3(CC[C@@](C)([C@H]4CC[C@](O)(CC)[C@H](C)O4)O3)O2)[C@H](C)C[C@@H]1C (stereo partly specified)
active

Next:
Which outcome did this test record for the molecule O=C(/C=C/c1cc(CN2CCOCC2)c(O)c2ncccc12)c1cc(CN2CCOCC2)c(O)c2ncccc12 ?
active

Dear colleague, could you share the recorded outcome for O=C(COc1cccc(/C=C2\COc3ccc(Cl)cc3C2=O)c1)c1ccc(Cl)cc1 when you have a moment?
inactive

Hey, what did the test say about CC(C)C1=C[C@@]23CC[C@@H]4[C@](C)(CCC[C@@]4(C)C(=O)N4CCCNCC4)[C@H]2C[C@@H]1[C@H]1C(=O)CCC(=O)[C@H]13 ?
inactive

Tell me the recorded outcome of this test for CCOc1ccc(C(C)=O)cc1NC(=O)c1cccc(-c2nnn(CC)n2)c1 .
inactive

Recorded call for C=C(C)[C@@H]1CC[C@]2(C(=O)OC)CC[C@]3(C)[C@H](CC[C@@H]4[C@@]5(C)C/C(=C/c6ccc(OC)cc6)C(=O)C(C)(C)[C@@H]5CC[C@]43C)[C@@H]12 ?
inactive

* * *

Reported values of growth for individual entries
Test system: NCI-H23 lung
Experiment: NCI-60 one-dose screen, 48 h (100 = growth as untreated, 0 = no growth, -100 = all killed)
Measurement Parameters: 10 µM unless noted
About 83,000 compounds went through this panel and 20% of them were active in at least one assay; those are over-represented in the sample as a whole. The source made the active and inactive calls. Rule for the calls: active = growth percent below 10; inactive = the rest.

Dear colleague, please send me the reported growth for Cn1nc(N)c2cc([C@@H]3Nc4ccc5[nH]ncc5c4[C@H]4C5CCC(C5)[C@@H]34)ccc21 (stereo not given in full) when you can.
26.9% (inactive)

Provide measured growth value, entry: N#Cc1c(-c2ccc(Cl)cc2)nc(NN=Cc2ccco2)nc1N1CCOCC1
70.8% (inactive)

Indicate the recorded growth value for this molecule: COc1cc(-c2nn(-c3ccc(C)cc3)cc2C(=O)O)ccc1O
89.1% (inactive)

Consider the molecule Clc1ccc2c(NCCCCNc3nc(N4CCCCC4)nc4ccccc34)ccnc2c1 . State its measured growth.
53.1% (inactive)

***
Entry N#C/C(=C\c1ccc(-c2cc(C(F)(F)F)ccc2Cl)o1)c1nc(-c2ccco2)cs1 needs its growth filled in; supply it.
93.7% (inactive)

Tell me its growth given CC(O)CN1CC(O)=C(c2nc3ccccc3s2)C1=N (stereo not given) as the entry.
83% (inactive)

For the molecule OCc1ccc(N2CCc3cccc(F)c3C2)cc1Cl , report growth.
84.7% [0.1 µM] (inactive)

Report growth for C#CCOc1ccc2ncnc(Nc3cccc(CNC(=O)C=C)c3)c2c1
104% [8.25 µM] (inactive)

Provide one value: measured growth of CC/C=C\C[C@H]1C/C=C2/C(=O)C=C[C@H]2C/C=C\CCCC(=O)O1
39.4% (inactive)

For the molecule O=C(/C=C/c1cccc(Cl)c1)c1ccc(O)c(CN2CCN(c3cc4c(cc3F)c(=O)c(C(=O)O)cn4C3CC3)CC2)c1 , give its reported growth.
56.4% (inactive)
